- Test Name: in vivo
- Condition Label: male, Cyp3a−/− (FVB background), mouse, po, 25 mg/kg, Tmax
Metric Name: Tmax (h)
# value in h; strip the unit string

Problem: What value of measured Tmax is listed for "CC(C)c1nc(CN(C)C(=O)N[C@H](C(=O)N[C@@H](Cc2ccccc2)C[C@H](O)[C@H](Cc2ccccc2)NC(=O)OCc2cncs2)C(C)C)cs1" ?
Solution: 2.33

----------
- Test Name: Plasma pharmacokinetics and tissue distribution 2 h after oral cabazitaxel 10 mg/kg with vehicle or 25 mg/kg ritonavir in wild-type, Oatp1a/1b−/−, Oatp1a/1b/2b1−/−, OATP1B1- and OATP1B3-transgenic mice
- Assay type: in vivo
- Condition Label: male, FVB, mouse, brain/plasma, po, wild-type mice; ritonavir 25 mg/kg oral; cabazitaxel 10 mg/kg oral; 2 h; read-out: Brain-to-plasma ratio
Metric Name: Kp at 2 h
Output spec: single numeric token, no unit.

Problem: What value of measured Kp at 2 h is listed for "CO[C@H]1C(=O)[C@]2(C)[C@@H](OC)C[C@H]3OC[C@@]3(OC(C)=O)[C@H]2[C@H](OC(=O)c2ccccc2)[C@]2(O)C[C@H](OC(=O)[C@H](O)[C@@H](NC(=O)OC(C)(C)C)c3ccccc3)C(C)=C1C2(C)C" ?
Solution: 0.036

----------
- Test Name: Plasma pharmacokinetics and tissue distribution 2 h after oral cabazitaxel 10 mg/kg with vehicle or 25 mg/kg ritonavir in wild-type, Oatp1a/1b−/−, Oatp1a/1b/2b1−/−, OATP1B1- and OATP1B3-transgenic mice
- Format: in vivo
- Condition Label: male, FVB, mouse, brain/plasma, po, OATP1B1-transgenic mice; ritonavir 25 mg/kg oral; cabazitaxel 10 mg/kg oral; 2 h; read-out: Brain-to-plasma ratio
Metric Name: Kp at 2 h
Output spec: single numeric token, no unit.

Problem: What value of measured Kp at 2 h is listed for "CO[C@H]1C(=O)[C@]2(C)[C@@H](OC)C[C@H]3OC[C@@]3(OC(C)=O)[C@H]2[C@H](OC(=O)c2ccccc2)[C@]2(O)C[C@H](OC(=O)[C@H](O)[C@@H](NC(=O)OC(C)(C)C)c3ccccc3)C(C)=C1C2(C)C" ?
Solution: 0.045

----------
- Test Name: Plasma pharmacokinetics and tissue distribution 2 h after oral cabazitaxel 10 mg/kg with vehicle or 25 mg/kg ritonavir in wild-type, Oatp1a/1b−/−, Oatp1a/1b/2b1−/−, OATP1B1- and OATP1B3-transgenic mice
- Assay type: in vivo
- Condition Label: male, FVB, mouse, plasma, po, 10 mg/kg, wild-type mice; ritonavir 25 mg/kg oral; cabazitaxel 10 mg/kg oral
- Experimental: All animals were fasted 2 to 3 hours prior to the start of the experiment to minimize variation in absorption after oral administration. […] Subsequently, cardiac puncture was performed with a heparinized needle and syringe collecting a final blood sample. […] All samples were stored at −30° C. until analysis. Differences were considered statistically significant when P<0.05. All data are presented as geometric mean±SD.
Metric Name: Tmax (h)
# value in h; strip the unit string

Problem: What value of measured Tmax is listed for "CO[C@H]1C(=O)[C@]2(C)[C@@H](OC)C[C@H]3OC[C@@]3(OC(C)=O)[C@H]2[C@H](OC(=O)c2ccccc2)[C@]2(O)C[C@H](OC(=O)[C@H](O)[C@@H](NC(=O)OC(C)(C)C)c3ccccc3)C(C)=C1C2(C)C" ?
Solution: 2
